- EXPERIMENTAL TARGET: DYRK1A (Homo sapiens, UniProt Q13627)
- TEST DETAILS: biochemical
- Format: binding
- ASSAY CONTEXT: read-out: DYRK1A inhibition in pilot HTS
READOUT LABEL: inhibition at 6.7 µM (%)
Only the number, expressed in %, is required.

CC1=NCCc2c1[nH]c1cc(O)ccc21; 79
COc1ccc2c3c([nH]c2c1)C(C)=NCC3; 81
Cc1nccc2c1[nH]c1ccccc12; 71
COc1ccc2c(c1)[nH]c1c(C)nccc12 [Harmine, harmine, reference compound]; 74

// next entry
What does the record list as inhibition at 6.7 µM for Cc1[nH]ccc2c1[nH]c1cc(=O)ccc12 ?
78
